# measuredOn: MYLK2 (human) (UniProt Q9H1R3)
# Sequence (Q9H1R3 whole entry, looked up): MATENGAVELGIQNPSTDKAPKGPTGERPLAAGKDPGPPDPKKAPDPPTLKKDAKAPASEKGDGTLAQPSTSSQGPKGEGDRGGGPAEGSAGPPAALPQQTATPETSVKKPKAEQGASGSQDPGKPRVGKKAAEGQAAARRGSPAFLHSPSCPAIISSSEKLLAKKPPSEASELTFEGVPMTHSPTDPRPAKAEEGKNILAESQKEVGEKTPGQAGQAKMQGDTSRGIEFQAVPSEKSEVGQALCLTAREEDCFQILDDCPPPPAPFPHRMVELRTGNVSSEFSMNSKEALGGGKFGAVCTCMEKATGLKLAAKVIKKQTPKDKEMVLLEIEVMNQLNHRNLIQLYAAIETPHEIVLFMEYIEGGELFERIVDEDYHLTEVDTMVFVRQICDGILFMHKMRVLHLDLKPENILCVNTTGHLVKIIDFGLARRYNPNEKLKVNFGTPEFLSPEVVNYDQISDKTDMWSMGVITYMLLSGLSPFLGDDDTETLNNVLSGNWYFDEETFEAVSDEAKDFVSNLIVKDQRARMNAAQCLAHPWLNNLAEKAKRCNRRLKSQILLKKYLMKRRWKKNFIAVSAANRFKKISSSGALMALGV
# experimentDescription: radiometric filter-binding kinase assay, Kinase HotSpot
# runParameters: compound 0.5 µM; ATP 10 µM
Task for the reader: assign each of the following compounds its reported residual activity.
Answer in %, number only, no unit symbol.

Sure, the documented residual activity for COc1cc2c(Nc3ccc(Br)cc3F)ncnc2cc1OCC1CCN(C)CC1 is 97.1

Sure, the documented residual activity for O=C(O)c1ccc2c3c1cccc3c(=O)n1c3ccccc3nc21 is 99.6

Sure, the documented residual activity for O=c1c2ccccc2[nH]c(=S)n1CCN1CCC(=C(c2ccc(F)cc2)c2ccc(F)cc2)CC1 is 99.9

Sure, the documented residual activity for O=S(=O)(NCCNC/C=C/c1ccc(Br)cc1)c1cccc2cnccc12 is 96.5

Sure, the documented residual activity for CCCCc1c(-c2ccc(O)cc2)[nH]c2nccnc12 is 95.7

Sure, the documented residual activity for Cn1cc(/C=C2\C(=O)Nc3ccc(S(N)(=O)=O)cc32)c2ccccc21 is 53.6

Sure, the documented residual activity for O=c1[nH]c2ccccc2n1C1CCN(Cc2ccc(-c3nc4cc5[nH]cnc5cc4nc3-c3ccccc3)cc2)CC1 is 103

Sure, the documented residual activity for CCc1nc(-c2ccc(OC)cc2)[nH]c1-c1ccncc1 is 101

Sure, the documented residual activity for FC(F)(F)c1ccc(/C=C/c2nc(COc3ccc(CCCCn4ccnn4)cc3)co2)cc1 is 101

Sure, the documented residual activity for COc1cc2ncnc(Nc3ccc(O)c(Br)c3)c2cc1OC is 87.3
